EC50 reference
target: B2-AR (Homo sapiens, UniProt P07550); construct: expressed in transfected cells; host or cells: CHO-K1; test: cAMP Gs dynamic HTRF assay, cells expressing beta-adrenergic receptor (CHO-K1), B2-AR; type: cell-based; conditions: CHO-K1 cells, cAMP HTRF; read-out: pEC50 [B2-AR] (converted)
Sequence (P07550 whole entry, species assumed): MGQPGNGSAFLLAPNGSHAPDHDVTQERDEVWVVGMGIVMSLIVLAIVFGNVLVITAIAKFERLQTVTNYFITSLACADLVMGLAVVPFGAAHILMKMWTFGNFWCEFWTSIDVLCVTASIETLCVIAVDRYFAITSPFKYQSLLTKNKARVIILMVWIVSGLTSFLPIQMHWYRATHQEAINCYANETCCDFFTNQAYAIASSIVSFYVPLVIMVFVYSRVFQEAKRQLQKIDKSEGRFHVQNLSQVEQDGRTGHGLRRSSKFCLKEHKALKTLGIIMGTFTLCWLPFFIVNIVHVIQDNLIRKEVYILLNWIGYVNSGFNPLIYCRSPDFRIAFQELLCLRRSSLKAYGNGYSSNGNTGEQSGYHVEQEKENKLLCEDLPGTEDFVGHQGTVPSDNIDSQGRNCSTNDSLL

Sample answers from the record:
>  <smiles_record>
CC1(NC[C@H](O)c2cccc3[nH]nc(Cl)c23)CC1

>  <experimental_target>
B2-AR (Homo sapiens, UniProt P07550)

>  <assay_value>
< 10 nM

$$$$
>  <smiles_record>
CC(C)(C)NC[C@H](O)c1cccc2[nH]nc(C(F)F)c12

>  <experimental_target>
B2-AR (Homo sapiens, UniProt P07550)

>  <assay_value>
100 to 1000 nM

$$$$
>  <smiles_record>
CC(C)(NC[C@H](O)c1ccc(F)c2[nH]ncc12)C1CC1

>  <experimental_target>
B2-AR (Homo sapiens, UniProt P07550)

>  <assay_value>
< 10 nM

$$$$

So for C[C@H](NC[C@H](O)c1ccc(F)c2[nH]ncc12)C(C)(C)C , the logged EC50 turned out to be < 10 nM

So for C[C@@H](NC[C@H](O)c1cccc2[nH]ncc12)C1CC1 , the logged EC50 turned out to be < 10 nM

---

target: B2-AR (Homo sapiens); construct: expressed in transfected cells; host or cells: CHO-K1; assay: cAMP Gs dynamic HTRF assay, cells expressing beta-adrenergic receptor (CHO-K1), B2-AR; type: cell-based; settings: CHO-K1 cells, relative to full agonist isoproterenol; read-out: Emax (% iso) (%) [B2-AR]
quantity_kind: Emax

Sample answers from the record:
>  <compound>
CC1(NC[C@H](O)c2cncc3[nH]ncc23)CCC1 [I-156]

>  <Emax>
> 90%

$$$$
>  <compound>
Cc1n[nH]c2cccc([C@@H](O)CNC(C)C)c12 [I-170]

>  <Emax>
70 to 90%

$$$$
>  <compound>
O[C@@H](CNCC1CC1)c1cccc2[nH]ncc12 [I-76]

>  <Emax>
> 90%

$$$$
>  <compound>
CC(C)C(C)(C)NC[C@H](O)c1ccc(F)c2[nH]ncc12 [I-22]

>  <Emax>
> 90%

$$$$
>  <compound>
CC(C)(C)NC[C@H](O)c1ccc2nccnc2c1 [I-83]

>  <Emax>
50 to 70%

$$$$
>  <compound>
CC[C@@H](C)NC[C@H](O)c1cc(F)cc2[nH]ncc12 [I-41]

>  <Emax>
> 90%

$$$$
>  <compound>
CC(C)CNC[C@H](O)c1cncc2[nH]ncc12 [I-163]

>  <Emax>
50 to 70%

$$$$
>  <compound>
Cc1n[nH]c2cc(F)cc([C@@H](O)CNC(C)(C)C)c12 [I-61]

>  <Emax>
70 to 90%

$$$$

So for Cn1ncc2c([C@@H](O)CNC(C)(C)C)ccc(F)c21 [I-56] , the logged Emax turned out to be 50 to 70%

So for CCc1n[nH]c2cccc([C@@H](O)CNC(C)(C)C)c12 [I-172] , the logged Emax turned out to be 50 to 70%

So for CC(C)C(C)(C)NC[C@H](O)c1cccc2[nH]nc(F)c12 [I-25] , the logged Emax turned out to be > 90%
